Biological target: wild type and amino acid substituted PPO enzyme (Amaranthus tuberculatus, UniProt Q0NZW9, F420M/L397V)
Assay: biochemical
Settings: IC50 (M)
measuredParameter: IC50
In your response, put the unit directly after the numeric value.

Q: Consider the molecule shown here: "C#CCN1C(=O)C(F)(F)Oc2cc(F)c(-n3c(=O)n(C)c(=S)n(C)c3=O)cc21" What is its recorded IC50?
Ans: 1.05e-09 M
